Tested on: Human papillomavirus type 1a E7 protein (residues 1-88)
Test name: HPV1a E7 small-molecule binders, primary screen, biochemical, small-molecule microarray, residues 1-88, 635 nm (AID 1129)
Condition label: small-molecule microarray binding, fluorescence 635 nm; higher = more signal
Cut-off -0.03 on composite z-score, inclusive. At or above means true (1); below means false (0).

Take a look at these entries with their results.
> print(dat)
                                   compound      label
1  C=CC[C@@H]1C=C[C@H](ON=C(C)CCC(=O)OC[C@H]2O[C@H](c3ccccc3)C=C[C@@H]2Oc2ccc(OC)cc2)[C@@H](CO)O1  false (0)
2  C#CCCCON=C1C[C@@H](O)[C@@H](O)[C@@H]2[C@@H]3C(=O)N(Cc4ccccc4)C(=O)[C@@H]3CC[C@@H]12  false (0)
3  Cc1cc2c(nc1C)CCCCN2CC(C)ON=C1[C@H]2CCn3c(=O)n(-c4ccccc4)c(=O)n3[C@H]2[C@H](O)[C@@H]2O[C@H]12 (stereo partly specified)  false (0)
4  COC(=O)[C@@H]1CC[C@H](C)[C@@H](c2ccc(C)cc2)N1C(=O)c1ccc(C=NOCC[C@@H]2C=C[C@H](OC(C)=O)[C@@H](COC(C)=O)O2)cc1   true (1)

Asked: Given the entry CC[C@@H](c1ccccc1)n1c(=O)n2n(c1=O)[C@H]1[C@H](O)[C@@H]3O[C@@H]3C(=NOC[C@@H](O)COCc3ccco3)[C@H]1CC2 , answer whether its composite z-score meets or surpasses -0.03.
Given back: false (0)

Asked: Again, but for COC(=O)CC=C[C@@H](C)[C@@H](C=NOCC[C@@H]1C=C[C@H](OC(C)=O)[C@@H](COC(C)=O)O1)OC
Given back: true (1)

----------
Assay target: Pro-neuregulin-1, membrane-bound isoform (Homo sapiens) (UniProt Q02297)
Sequence (Q02297 whole entry, looked up, canonical isoform): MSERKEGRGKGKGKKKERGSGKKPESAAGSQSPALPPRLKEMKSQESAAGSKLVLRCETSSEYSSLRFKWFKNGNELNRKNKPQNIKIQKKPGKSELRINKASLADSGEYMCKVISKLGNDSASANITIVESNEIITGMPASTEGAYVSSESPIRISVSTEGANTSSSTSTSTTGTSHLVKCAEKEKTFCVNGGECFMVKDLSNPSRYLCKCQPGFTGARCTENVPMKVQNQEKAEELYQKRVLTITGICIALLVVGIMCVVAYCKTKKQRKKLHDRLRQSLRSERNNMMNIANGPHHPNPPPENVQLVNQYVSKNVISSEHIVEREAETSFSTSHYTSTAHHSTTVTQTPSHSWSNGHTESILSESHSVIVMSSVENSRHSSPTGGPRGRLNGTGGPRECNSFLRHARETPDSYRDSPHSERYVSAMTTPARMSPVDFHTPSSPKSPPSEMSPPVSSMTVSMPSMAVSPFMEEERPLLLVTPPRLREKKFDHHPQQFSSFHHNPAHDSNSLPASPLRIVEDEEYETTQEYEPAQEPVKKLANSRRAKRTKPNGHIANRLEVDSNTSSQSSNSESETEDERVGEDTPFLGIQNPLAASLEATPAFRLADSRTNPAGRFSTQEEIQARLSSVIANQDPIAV
Test name: NRG1 binders on small-molecule microarrays, primary screen, psychiatric disease protein project, biochemical, small-molecule microarray, fluorescence 635/667 (AID 1075);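 further: score combines 667 nm spot fluorescence with signal to noise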
Condition label: NRG1 binding, 635 nm fluorescence, higher = more signal
Cut-off 0.08 on composite z-score, inclusive. At or above means y; below means n.

Take a look at these entries with their results.
Compound	Assay target	Label
CCOC(=O)[C@H](CC(C)C)NC(=O)CCC1CC(OC(=O)NCc2ccc3c(c2)OCO3)CC2(CCCC(COC(=O)NCC3CCCCC3)O2)O1 (some centres undefined)	Pro-neuregulin-1, membrane-bound isoform (Homo sapiens) (UniProt Q02297)	y
CCOC(=O)NN=C1C[C@@H](O)[C@@H](O)[C@@H]2[C@@H]3C(=O)N([C@@H](C)c4ccccc4)C(=O)[C@@H]3CC[C@@H]12	Pro-neuregulin-1, membrane-bound isoform (Homo sapiens) (UniProt Q02297)	n

Asked: Given the entry CCC1=NOC(CCC2CC(OC(=O)NCc3cccc4c3OCO4)CC3(CCCC(COC(=O)NCCc4ccccc4OC)O3)O2)C1 (centres undefined) , answer whether its composite z-score meets or surpasses 0.08.
Given back: y

Asked: Again, but for CCCNC(=O)OC[C@H]1O[C@H](CCON=C(C)CCN2CCCc3nc(C)c(C)cc32)C=C[C@@H]1Oc1ccc(OC)cc1
Given back: y

Asked: Again, but for COc1cccc([C@H]2Oc3ccc(OC)cc3C(=NO[C@@H](C)c3cn([C@H](CO)Cc4ccccc4)nn3)[C@@H]2O)c1
Given back: y

----------
Test name: E. coli acrAB mutant growth effects, primary screen, E. coli filamentation inducers, strain DRC39, OD650, 24 h (AID 1178);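 further: growth measured as culture turbidity by optical density at 650 nm; test concentration not given here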
Condition label: higher = more signal, called active from +8 up or from −8 down
Parameter z-score: see the listing below.
Respond with the number and no other words.

In the examples that follow, each entry is paired with its recorded z-score.
Molecule	z-score
Cc1ccc(S(=O)(=O)N[C@H]2COC(=O)CC=C[C@@H](C)COC(=O)CC=C[C@@H]2C)cc1	0.0613
CCCCC#C[C@@H]1C=C[C@H](Oc2ccc(C(=O)OC)cc2)[C@@H](COC(=O)OCC)O1	-0.301
CC[C@@H](c1ccccc1)n1c(=O)n2n(c1=O)[C@H]1[C@H](O)[C@@H]3O[C@@H]3C(=NOC[C@@H](O)COCc3ccco3)[C@H]1CC2	0.243
CO[C@@H]1C=CCC(=O)N[C@@H](C)C(=O)OC[C@@H](OC)[C@H](C)CCCC(=O)OC[C@H]1C	0.853
CO[C@@H]1C=CCC(=O)N2CCC[C@H]2C(=O)OC[C@@H](C)C(=O)OC[C@H]1C	0.947

Asked: // lookup z-score for COc1cc(O)c(C(=O)C=Cc2ccc3c(c2)OCO3)c(OC)c1
Given back: -0.45

Asked: Again, but for COc1ccc(COC(=O)NN=C2C[C@@H](O)[C@@H](O)[C@@H]3[C@@H]4C(=O)N(c5cccc(Oc6ccccc6)c5)C(=O)[C@@H]4CC[C@@H]23)cc1
Given back: -0.401

Asked: Again, but for COC(=O)NCC=Cc1nc(CCCO)co1
Given back: 0.107

Asked: Again, but for CC(C)=NOC[C@@H](C)[C@H](OCc1ccccc1)C(C)C
Given back: -0.161

Asked: Again, but for CC(C)CCN1CCc2nc(COc3ccccc3)c3c(c2C1)CO[C@@H](C)C3
Given back: 1.1

Asked: Again, but for CC(C)=NO[C@H](C)c1cn([C@H](CO)Cc2ccccc2)nn1
Given back: 0.517

Asked: Again, but for CCOC(=O)[C@H](Cc1ccccc1)NC(=O)CCC1CC(OC(=O)NCc2cccc3ccccc23)CC2(CCCC(COC(=O)NCc3cccc(C(F)(F)F)c3)O2)O1 (stereo partly specified)
Given back: 0.213

Asked: Again, but for C=CC[C@@H]1C=C[C@H](ON=C(C)CCC(=O)OC[C@H]2O[C@H](c3ccccc3)C=C[C@@H]2Oc2ccc(OC)cc2)[C@@H](CO)O1
Given back: 0.741

Asked: Again, but for COC(=O)CC=C[C@@H](C)[C@@H]1C=C[C@H](O)[C@@H](CO)O1
Given back: 0.439

Asked: Again, but for CCOC(=O)NN=C1C[C@@H](O)[C@@H](O)[C@@H]2[C@@H]3C(=O)N(Cc4ccccc4)C(=O)[C@@H]3CC[C@H]12
Given back: -0.077

Asked: Again, but for CCCNC(=O)OC[C@H]1O[C@H](CCON=C(C)CCC(=O)OC[C@H]2O[C@H](c3ccccc3)C=C[C@@H]2Oc2ccc(OC)cc2)C=C[C@@H]1Oc1ccc(OC)cc1
Given back: 0.629

Asked: Again, but for CO[C@@H]1COC(=O)CC=C[C@@H](C)[C@@H]2C=C[C@H](O)[C@@H](COC(=O)CC=C[C@H]1C)O2
Given back: 0.619

Asked: Again, but for C=CC1=C[C@H](O)[C@@H]2O[C@@H]2C12OCCCO2
Given back: 0.451

Asked: Again, but for CCOC(=O)NN=C1C[C@@H](O)[C@@H](O)[C@@H]2[C@@H]3C(=O)N(C(C)(C)C)C(=O)[C@@H]3CC[C@H]12
Given back: 0.408

Asked: Again, but for CO[C@H]1COC(=O)CC=C[C@H](C)COC(=O)[C@@H](C)NC(=O)CC=C[C@@H]1C
Given back: 0.33

Asked: Again, but for C[C@@H](c1ccccc1)N1C(=O)[C@H]2[C@H]3[C@H](O)[C@H](O)CC(=NO[C@@H]4O[C@H](CO)[C@@H](O)[C@H](O)[C@H]4O)[C@@H]3CC[C@H]2C1=O
Given back: -0.403

Asked: Again, but for COC(=O)[C@@H]1CC[C@H](C)[C@@H](c2ccc(C)cc2)N1C(=O)c1ccc(C=NOCC[C@@H]2C=C[C@H](OC(C)=O)[C@@H](COC(C)=O)O2)cc1
Given back: 0.667

----------
Parameter z-score: see the listing below.
Test name: yeast growth modulation, basal conditions, primary screen, YJM789 clinical isolate, OD600, 24 h (AID 1089);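 further: growth of clinical yeast isolate S. cerevisiae YJM 789 seeded 1000 cells per well; test concentration not given here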
Condition label: S. cerevisiae YJM789 growth, higher = more signal, called active from +8 up or from −8 down
Active and inactive are the calls of the source.

> print(dat)
                                   compound  measure.name     value.reported
1  CCN1C(=O)[C@H]2[C@H]3[C@H](O)[C@H](O)CC(=NOCC(C)C)[C@@H]3CC[C@H]2C1=O       z-score  -0.132 (inactive)
2  C[C@@H]1NC(=O)[C@@H](C)COC(=O)[C@H](C)NC(=O)[C@@H](C)COC1=O       z-score  -0.335 (inactive)
3  COC(=O)CC=C[C@@H](C)[C@@H](C=NO[C@H](C)c1cn([C@H](CO)Cc2ccccc2)nn1)NS(=O)(=O)c1ccc(C)cc1       z-score  -0.798 (inactive)
4  CCOC(=O)[C@H](CC(C)C)NC(=O)CCC1CC(OC(=O)NCc2cccc3ccccc23)CC2(CCCC(COC(=O)NCCOc3ccccc3)O2)O1 (some centres undefined)       z-score  -0.524 (inactive)
5  CCCCC#C[C@@H]1C=C[C@H](Oc2cc(OC)c(OC)c(OC)c2)[C@@H](COC(=O)OCC)O1       z-score   0.635 (inactive)

Asked: // lookup z-score for O=C(NN=C1C[C@@H](O)[C@@H](O)[C@@H]2[C@@H]3C(=O)N(Cc4ccccc4)C(=O)[C@@H]3CC[C@@H]12)OCc1ccccc1
Given back: -0.227 (inactive)

Asked: Again, but for COc1cccc([C@H]2Oc3ccc(OC)cc3C(=NO[C@@H]3O[C@H](COC(C)=O)[C@@H](OC(C)=O)[C@H](OC(C)=O)[C@H]3OC(C)=O)[C@@H]2O)c1
Given back: -1.07 (inactive)
